# experimentalTarget: recombinant human baculovirus-expressed cMET (Homo sapiens (Human))
# Sequence (P08581 25-1390): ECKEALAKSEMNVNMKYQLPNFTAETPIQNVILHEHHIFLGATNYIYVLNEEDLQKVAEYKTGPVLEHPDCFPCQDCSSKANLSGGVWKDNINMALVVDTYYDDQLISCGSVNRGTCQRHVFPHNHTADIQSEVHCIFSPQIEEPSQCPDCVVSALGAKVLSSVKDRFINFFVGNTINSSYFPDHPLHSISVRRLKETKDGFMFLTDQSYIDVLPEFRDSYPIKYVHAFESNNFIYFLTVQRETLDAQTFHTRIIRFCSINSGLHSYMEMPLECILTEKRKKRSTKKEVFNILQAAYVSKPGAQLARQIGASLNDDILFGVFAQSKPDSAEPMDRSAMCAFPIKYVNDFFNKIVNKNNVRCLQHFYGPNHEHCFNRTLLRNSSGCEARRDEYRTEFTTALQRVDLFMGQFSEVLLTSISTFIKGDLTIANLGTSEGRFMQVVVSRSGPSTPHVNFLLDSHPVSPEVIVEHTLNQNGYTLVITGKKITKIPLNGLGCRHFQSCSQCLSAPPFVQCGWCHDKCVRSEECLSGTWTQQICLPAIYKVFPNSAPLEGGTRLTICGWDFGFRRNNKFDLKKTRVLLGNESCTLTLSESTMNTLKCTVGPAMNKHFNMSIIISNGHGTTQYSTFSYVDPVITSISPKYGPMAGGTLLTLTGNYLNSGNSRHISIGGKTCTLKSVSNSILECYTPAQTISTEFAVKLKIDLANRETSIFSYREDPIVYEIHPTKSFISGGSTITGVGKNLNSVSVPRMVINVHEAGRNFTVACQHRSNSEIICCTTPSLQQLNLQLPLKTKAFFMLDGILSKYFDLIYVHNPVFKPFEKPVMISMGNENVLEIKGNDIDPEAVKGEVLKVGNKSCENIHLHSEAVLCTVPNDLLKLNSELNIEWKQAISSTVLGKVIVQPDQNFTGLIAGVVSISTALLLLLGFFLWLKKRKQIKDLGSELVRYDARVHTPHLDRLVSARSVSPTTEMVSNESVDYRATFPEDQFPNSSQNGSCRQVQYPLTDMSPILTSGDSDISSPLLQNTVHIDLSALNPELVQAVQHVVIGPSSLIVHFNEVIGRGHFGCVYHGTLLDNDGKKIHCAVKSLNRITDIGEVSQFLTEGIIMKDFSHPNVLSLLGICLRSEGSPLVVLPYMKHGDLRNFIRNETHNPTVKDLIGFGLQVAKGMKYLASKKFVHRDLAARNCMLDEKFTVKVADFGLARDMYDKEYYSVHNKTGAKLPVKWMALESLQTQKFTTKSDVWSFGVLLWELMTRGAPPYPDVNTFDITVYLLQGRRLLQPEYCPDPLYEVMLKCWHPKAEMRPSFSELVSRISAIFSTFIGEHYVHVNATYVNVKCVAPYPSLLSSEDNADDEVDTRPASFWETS
# experimentSummary: C-MET Kinase Assay (HTRF KinEASE)
# Format: biochemical
# measurementSetup: average of two or more determinations; read-out: c-MET IC50
valueType: IC50

{"columns": ["structureNotation", "IC50"],
 "data": [
  ["C=CCn1cc(C(=O)Nc2ccc(Oc3ccnc4cc(OC)c(OC)cc34)c(F)c2)c(=O)n(CC=C)c1=O", "10 to 100 nM"]
]}

Q: Any idea what IC50 was measured for "COc1cc2nccc(Oc3ccc(NC(=O)c4nn(C)c(=O)n(CCn5cccn5)c4=O)cc3F)c2cc1OC" ?
Result: 10 to 100 nM
